Test system: RXRa DBDmut IVT, anti-RXR (DBD mutation: RXRa K156A/R161A, NR concentration 90 nM)
Experiment: PBM binding z-score (relative to random genomic background probes); higher = stronger binding; sequences stand for … in GC…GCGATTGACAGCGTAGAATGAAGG
Could you label it t if measured PBM binding z-score is 0.7 or higher, and f otherwise?

Data request: Is it the case that CGAACTAGGTCATTGACAGGACAGTTAATAGTAA has PBM binding z-score reaching or exceeding 0.7?
Data returned: t

Data request: Is it the case that ACAGACAGGTGAGTGGAGGTAACTCAGCTGGACG has PBM binding z-score reaching or exceeding 0.7?
Data returned: f

Data request: Is it the case that ATCTAAAGGTCGTGAGGTGAGTATACAGAAAGGC has PBM binding z-score reaching or exceeding 0.7?
Data returned: t

Data request: Is it the case that ATCGAAAGGTCGTGAGGTGAGTCTACAGAAAGGC has PBM binding z-score reaching or exceeding 0.7?
Data returned: t

Data request: Is it the case that GCGACCGGGGCAAAGCAGGTTACCATAAGGTTGG has PBM binding z-score reaching or exceeding 0.7?
Data returned: f
